Origin of measurements: patent US11136296B2

Target: FP receptor (Homo sapiens (Human), UniProt P43088)
Sequence (P43088 whole entry): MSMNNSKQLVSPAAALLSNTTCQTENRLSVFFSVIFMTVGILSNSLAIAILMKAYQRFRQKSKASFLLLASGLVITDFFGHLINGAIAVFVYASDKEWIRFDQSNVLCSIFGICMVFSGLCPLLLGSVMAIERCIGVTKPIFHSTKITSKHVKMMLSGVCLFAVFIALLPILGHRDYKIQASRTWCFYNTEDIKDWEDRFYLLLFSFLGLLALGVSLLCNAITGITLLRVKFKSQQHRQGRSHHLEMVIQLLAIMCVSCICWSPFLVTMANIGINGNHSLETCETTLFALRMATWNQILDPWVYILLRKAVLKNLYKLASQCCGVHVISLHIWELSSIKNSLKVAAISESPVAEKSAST
Assay: In vitro test of inhibition of human FP receptor activity (PGF2α-induced calcium flux in FP-expressing CHEM1 cells)
Conditions: PGF2α-induced (2 nM) calcium flux in FP-expressing CHEM1 cells; some as mean values from multiple determinations
pIC50: −log10 of the molar value.
property-label: pIC50

Please review the following examples before continuing.
Looking for the measured pIC50 of COc1ccccc1[C@@H](CNC(=O)c1c(C)c(-c2ccccc2)nc2ccc(Br)cc12)N1CCC(C(=O)O)C1 (stereo partly drawn) [compound 248] , can you help?
7.89

Fill in: pIC50 of Cc1c(-c2ccccc2)nc2ccc(Br)cc2c1C(=O)NCC(CC(=O)O)c1ccccn1 (single isomer, unassigned; (-)) [Example 103] is ___
6.54

1. Cc1ccc(F)cc1C(CCC(=O)O)CNC(=O)c1c(C)c(-c2ccccc2)nc2ccc(Br)cc12 (single isomer, unassigned; (-)) [Example 207]
2. Cc1c(-c2ccccc2)nc2ccc(Br)cc2c1C(=O)NCC(CCC(=O)O)c1ccccn1 (racemic) [Example 224]
Please indicate which entry, 1 or 2 , has the lower recorded pIC50 value. Answer = label.
2

1. CCC(CNC(=O)c1c(C)c(-c2ccccc2)nc2ccc(Br)cc12)(C(=O)O)c1ccccc1 (single isomer, unassigned; (-)) [Example 17]
2. O=C(O)CCC(CNC(=O)c1c(Cl)c(-c2ccccc2)nc2ccc(Br)cc12)c1ccccc1C(F)(F)F (single isomer, unassigned; (-)) [Example 216]
Hi there! Just curious which has the higher pIC50 between 1 and 2 . Identify your pick by its label.
2

1. COc1ccc(F)cc1C(C)(CNC(=O)c1c(C)c(-c2ccccc2)nc2ccc(Br)cc12)CC(=O)O (single isomer, unassigned; (-)) [Example 134]
2. CCC(CNC(=O)c1c(C)c(-c2ccccc2)nc2ccc(Br)cc12)(C(=O)O)c1ccccc1 (racemic) [Example 16]
Smaller pIC50 value? Options are 1 and 2 Give the label under which the chosen entry appears.
1

P. Cc1cccc(C(CNC(=O)c2c(C)c(-c3ccccc3)nc3ccc(Br)cc23)CC(=O)O)c1 (single isomer, unassigned) [Example 94]
Q. Cc1c(-c2ccccc2)nc2ccc(Br)cc2c1C(=O)NCC(CCC(=O)O)c1cc(F)ccc1Cl (single isomer, unassigned; (-)) [Example 164]
Looking only at measured pIC50, which entry is lower, P or Q ? // caller expects the label of the chosen entry
P
(P: 7.02, Q: 7.82)
